Measurement Target: T1, human CD48 (on primary human peripheral blood mononuclear cells) (human, UniProt P09326 27-220)
T1 sequence: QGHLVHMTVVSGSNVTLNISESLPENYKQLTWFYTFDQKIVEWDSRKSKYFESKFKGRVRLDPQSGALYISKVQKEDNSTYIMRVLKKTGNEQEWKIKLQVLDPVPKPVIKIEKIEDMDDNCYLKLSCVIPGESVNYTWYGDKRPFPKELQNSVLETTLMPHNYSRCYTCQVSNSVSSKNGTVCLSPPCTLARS
Assay Comment: cell-based or functional assay
binders and their reported Inhibition of IFN-gamma Release IC50; Donor 2
Lab book: enter the figure in Molar, no units written.

{"columns": ["Binder", "Readout Units", "Result Number"],
 "data": [
  ["H2M1710N (antibody, mouse IgG2, V domains shown, Human variable domains, mouse IgG2 Fc (H2M)) VH: QVQLVQSGADMKKPGASVRVSCKASGYTFTDYFIHWVRQAPGQGPEWMGWINPDSGATNYAQQFQGRVTMTRDTSISATYMEMSRLRSDDTAVFYCARDKDGSGWYLDDWGQGTLVTVSS VL: EIVLTQSPATLSLSPGERATLSCRASQSVNIYLAWYQQKPGQAPRLLIYDASNRASGIPARFSGSGSGTDFTLTISSLEPEDFAVYYCQQRSNWPPSITFGQGTRLEIK", "Molar", "1.9e-10"]
]}

Quick one: Inhibition of IFN-gamma Release IC50; Donor 2 of H2M1712N (antibody, mouse IgG2, V domains shown, Human variable domains, mouse IgG2 Fc (H2M)) VH: QIQLVQSGAEMKRPGTSVKVSCKASGYTFSSYGINWVRQAPGQGLEWMGWISAYNGDTNYAQKLQGRVTMTTDTSTTTAYMEVRSLRSDDTAVYYCARFLTGTKDLYYGMDVWGQGTTVTVSS VL: DIQMTQSPSSLSASVGDRVTITCQASQDISNFLNWYQQKPGKAPDLLINDASILETGVPSRFSGSGSGTDFTLTINSLQPEDIATYYCQQYDNLPLTFGGGTKVEIK ? 2.8e-11

Name the reported Inhibition of IFN-gamma Release IC50; Donor 2 value associated with the binder H2M1709N (antibody, mouse IgG2, V domains shown, Human variable domains, mouse IgG2 Fc (H2M)) VH: QVQLVQSGAEVKKPGASVKVSCKVSGYTLTELSIHWVRQAPGKGLEWMGGFDPEDGETIYAQKFQGRVNMTEDTSTDTAYMELSSLRSDDTTVYFCASLLPYFDYWGQGTLVTVSS VL: EIVLTQSPGTLSLSPGERATLSCRASQSVSSSYLAWYQQKPGQAPRLLIYGASSRATGIPDRFSGSGSGTDFTLSISRLEPEDFAVYFCQQYGSSMYTFGQGTKLEIK 5.7e-11
